studySystem: BRD4 (Homo sapiens, UniProt O60885)
Construct: HEK293 containing a HiBit insertion for BRD4; endogenous in cells; host or cells: HEK293 with a HiBiT insertion for BRD4
protocolDescription: Assay 1 - Degradation of HiBit-BRD4 in HEK293
Format: cell-based
testContext: HiBit-BRD4 in HEK293, 6 h treatment
compounds and their reported Dmax

# annotated cases, reported Dmax shown
CC(=O)N1c2ccc(-c3ccc(C(=O)NCCOCCOCCOCCOCCOCCNC(=O)C4CC(c5ccccc5)CN(C(=O)/C(C#N)=C/c5nccs5)C4)cc3)cc2[C@H](Nc2ccc(Cl)cc2)C[C@@H]1C (some centres unmarked) [Example 13z] :: ≥ 70%
CC(=O)N1c2ccc(-c3ccc(C(=O)NCCOCCOCCOCCOCCOCCNC(=O)[C@@H]4CN(C(=O)/C(C#N)=C/c5ccn(C)n5)C[C@H]4c4ccc(F)cc4)cc3)cc2[C@H](Nc2ccc(Cl)cc2)C[C@@H]1C [Example 15ag] :: 30 to 50%
CC(=O)N1c2ccc(-c3ccc(C(=O)NCCOCCOCCOCCOCCOCCNC(=O)C4CC(c5ccccc5)CN(C(=O)/C(C#N)=C/c5ccc(F)cc5)C4)cc3)cc2[C@H](Nc2ccc(Cl)cc2)C[C@@H]1C (some centres unmarked) [Example 13ac] :: ≥ 70%
COc1ccc(C2CC(C(=O)NCCOCCOCCOCCOCCOCCNC(=O)c3ccc(-c4ccc5c(c4)[C@H](Nc4ccc(Cl)cc4)C[C@H](C)N5C(C)=O)cc3)CN(C(=O)/C(C#N)=C/c3nccs3)C2)cc1 (some centres unmarked) [Example 13ae] :: ≥ 70%

Query: // fetch Dmax for CC(=O)N1c2ccc(-c3ccc(C(=O)NCCOCCOCCOCCOCCOCCNC(=O)C4CC(c5cccc(C)c5)CN(C(=O)/C(C#N)=C/c5ccc(F)cc5)C4)cc3)cc2[C@H](Nc2ccc(Cl)cc2)C[C@@H]1C (some centres unmarked) [Example 13aw] ; system: BRD4 (Homo sapiens, UniProt O60885)
Reply: < 50%

====

studySystem: BRD4 (Homo sapiens)
Construct: HEK293 containing a HiBit insertion for BRD4; endogenous in cells; host or cells: HEK293 with a HiBiT insertion for BRD4
protocolDescription: Assay 1 - Degradation of HiBit-BRD4 in HEK293
Type: cell-based
testContext: HiBit-BRD4 in HEK293, 6 h treatment
resultType: DC50

Please review the following examples before continuing.
CC(=O)N1c2ccc(-c3ccc(C(=O)NCCOCCOCCOCCOCCOCCNC(=O)[C@@H]4CN(C(=O)/C(C#N)=C/c5ccc(F)cc5)C[C@H]4C4CCCCC4)cc3)cc2[C@H](Nc2ccc(Cl)cc2)C[C@@H]1C [Example 15s] :: 25 to 200 nM
COc1ccc([C@@H]2CN(C(=O)/C(C#N)=C/c3nccs3)C[C@H]2C(=O)NCCOCCOCCOCCOCCOCCNC(=O)c2ccc(-c3ccc4c(c3)[C@H](Nc3ccc(Cl)cc3)C[C@H](C)N4C(C)=O)cc2)cc1 [Example 15z] :: 25 to 200 nM
CC(=O)N1c2ccc(-c3ccc(C(=O)NCCOCCOCCOCCOCCOCCNC(=O)[C@@H]4CN(C(=O)/C(C#N)=C/c5nccs5)C[C@H]4C(C)C)cc3)cc2[C@H](Nc2ccc(Cl)cc2)C[C@@H]1C [Example 15f] :: > 200 nM
CC(=O)N1c2ccc(-c3ccc(C(=O)NCCOCCOCCOCCOCCOCCNC(=O)[C@@H]4CN(C(=O)/C(C#N)=C/c5ccc(F)cc5)C[C@H]4c4ccccc4)cc3)cc2[C@H](Nc2ccc(Cl)cc2)C[C@@H]1C [Example 15x] :: > 200 nM
COc1ccc([C@@H]2CN(C(=O)/C(C#N)=C/C(C)(C)C)C[C@H]2C(=O)NCCOCCOCCOCCOCCOCCNC(=O)c2ccc(-c3ccc4c(c3)[C@H](Nc3ccc(Cl)cc3)C[C@H](C)N4C(C)=O)cc2)cc1 [Example 15aa] :: 25 to 200 nM
CC(=O)N1c2ccc(-c3ccc(C(=O)NCCOCCOCCOCCOCCOCCNC(=O)[C@@H]4CN(C(=O)/C(C#N)=C/c5nccs5)C[C@H]4C4CCCCC4)cc3)cc2[C@H](Nc2ccc(Cl)cc2)C[C@@H]1C [Example 15p] :: 25 to 200 nM

# ---- query compound ----
Query: Provide DC50 value for the following compound: CC(=O)N1c2ccc(-c3ccc(C(=O)NCCOCCOCCOCCOCCOCCNC(=O)[C@@H]4CN(C(=O)/C(C#N)=C/C(C)(C)CN5CCOCC5)C[C@H]4c4cccc(C)c4)cc3)cc2[C@H](Nc2ccc(Cl)cc2)C[C@@H]1C [Example 15an]
Reply: 25 to 200 nM
